The values you see were collected from patent CN117677637A.

# SYSTEM UNDER TEST: T1, 犬CD20 (canine CD20, B淋巴细胞抗原CD20, full length, wild type) (canine (dog), UniProt Q3C2E2 1-297)
# T1 construct: Stably expressed from full-length cDNA on MDCK II (or HEK293) cells for flow cytometry and ADCC; naturally expressed on CLBL-1 canine lymphoma cells in the CDC assay; also called cCD20; MS4A1
# T1 chain: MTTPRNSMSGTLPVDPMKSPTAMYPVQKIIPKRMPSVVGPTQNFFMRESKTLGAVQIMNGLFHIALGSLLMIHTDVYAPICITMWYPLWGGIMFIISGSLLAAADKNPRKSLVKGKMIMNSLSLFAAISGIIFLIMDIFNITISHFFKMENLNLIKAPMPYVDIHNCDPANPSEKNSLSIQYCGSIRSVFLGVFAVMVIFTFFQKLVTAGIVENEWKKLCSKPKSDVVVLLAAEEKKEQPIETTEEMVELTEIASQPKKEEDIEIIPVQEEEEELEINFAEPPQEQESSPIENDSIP
# TEST METHOD NOTES: flow cytometry, 10 ug/ml antibody on MDCK II cells expressing canine CD20 (Fig 3C)
MEASUREMENT KIND: binding result

BINDER	EXPERIMENTAL VALUE
PMX077 (antibody, V domains shown) VH: EVQLVESGGDLVKPGGSLRLSCVASGITFSRYYMNWVRQAPGKGLQWVAYINSGGSPTTYADAVKGRFTISRDNAKNTLYLQMNSLRAEDTAVYYCTSFDYWGQGTLVTVSS VL: SYVLTQLPSKNVTLKQPAHITCGGDNIGSKSVHWYQQKLGQAPILIIYYDTSRPTGIPERFSGANSGNTATLTISGALAEDEADYYCQVWDSSANVFGGGTHLTVL	binds
PMX072 (antibody, V domains shown) VH: EVQLVESGGDLVKPGGSLRLSCVASGFTFSRYHMSWVRQAPGKGLQWVAFINTGRSSTNYADAVAGRFTISRDNAKNTLYLQMNSLRAEDTAVYYCSTLDYWGQGTLVTVSS VL: SYVLTQLPSKNVTLKQPAHITCGGDNIGSKSVHWYQQKLGQAPVLIIYYDSSRPTGIPERFSGANSGNTATLTISGALAEDEADYYCQVWDSSANVFGGGTHLTVL	binds
PMX066 (antibody, V domains shown, Canine mAb) VH: AVQLVESGGDLVKPGGSLRLSCVASGITFSRYHMSWVRQAPGKGLQWVAYINSGGSATSYTDAVKGRFSISRDNGKNTLYLQMNSLRVEDSAVYYCTTLDLWGQGTLVTVSS VL: SYVLTQLPSKNVTLKQPAHITCGGDNIGSKSVHWYQQKLGQAPVLIIYYDSRRPTGIPERFSGANSGNTATLTINGALAEDEADYYCQMWDSSANVFGGGTHLTVL	binds
